Cited source for all entries: patent US20240180158A1

# system-under-test: C. auris ASADH (Candidozyma auris)
# Sequence (A0A2H0ZN20 entry or part of it): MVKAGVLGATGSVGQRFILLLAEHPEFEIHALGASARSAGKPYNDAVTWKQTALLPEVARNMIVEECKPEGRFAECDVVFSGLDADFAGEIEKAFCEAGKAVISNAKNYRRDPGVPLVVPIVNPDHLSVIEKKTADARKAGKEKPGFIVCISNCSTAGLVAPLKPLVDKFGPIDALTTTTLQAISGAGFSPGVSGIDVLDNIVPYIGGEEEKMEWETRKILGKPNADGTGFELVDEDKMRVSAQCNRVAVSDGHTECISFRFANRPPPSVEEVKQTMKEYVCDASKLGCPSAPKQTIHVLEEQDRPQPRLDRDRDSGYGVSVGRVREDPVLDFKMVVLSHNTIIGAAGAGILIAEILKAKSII
# protocol-text: C. auris ASADH irreversible inhibition
# Type: biochemical
# assay-context: irreversible inhibitors; read-out: inhibitory constant
# Procedure: These amino acid analogs may be synthesized in accordance with various techniques and schemes provided herein. Two are vinyl sulfones and one is an acrylamide. Accordingly, the core functional group of compounds described herein can be at least one of a vinyl sulfone and/or an acrylamide. The vinyl sulfones were tested against C. auris ASADH as irreversible inhibitors.
Structures can show the parent of a compound that is named as a salt.
experimental-endpoint: pKi
Scale: pKi equals -log10([C]), with [C] in mol/L.

Query string: Recall and state the measured pKi for CS(=O)(=O)C=CC[C@H](N)C(=O)O [S-methylsulfonylvinylacrylamide, hydrochloride] .
Result string: 7.00
